System: Fibroblast
Assay: Multiplex assay against human fibroblast
Type: toxicity, cell-based
Settings: 12 h, 1 µM, compound concentration 1 uM, replicate 1
Reported Population Hoechst High Intensity Objects (%) values follow for various compounds
Could you give me the number in %? Just the number is fine.

Look over these answered cases.
{"columns": ["compound", "quantitative.result"],
 "data": [
  ["C=CCN1C[C@H](C(=O)N(CCCN(C)C)C(=O)NCC)C[C@@H]2c3cccc4[nH]cc(c34)C[C@H]21", 6],
  ["Cn1cc(C(=O)OCC2CCN(CCNS(C)(=O)=O)CC2)c2ccccc21", 1],
  ["CCn1c(-c2nc3cc(C(=O)N4CCCC(N)C4)ccc3n2C)cc2ccccc21.Cl (stereo not drawn)", 3],
  ["C[C@H](NC(=O)CNC(=O)c1cccc(Cl)c1)c1ccccc1", 0],
  ["Nc1nc(-c2ccco2)c2cnn(Cc3ccccc3F)c2n1", 0],
  ["O=c1nc2[nH]c3ccccc3nc-2c(=O)[nH]1", 5],
  ["CN1CCN2c3ccccc3Cc3ccccc3C2C1.Cl (stereo not drawn) [MIANSERIN HYDROCHLORIDE]", 2],
  ["CC(F)(F)CN1CCOc2c(nn(-c3ccccc3Cl)c2-c2ccc(Cl)cc2)C1=O", 0],
  ["COC(c1ccccc1)(c1ccccc1)[C@H](Oc1nc(C)cc(C)n1)C(=O)O", 1],
  ["COc1cc(C(=O)N2CC[C@@H](O)[C@@H](N)C2)cc2nc(-c3cc4ccccc4n3CC3CC3)n(C)c12.Cl", 2]
]}

Provide Population Hoechst High Intensity Objects (%), system Fibroblast, entry `CC(C)(C)c1ccc(CSc2cnn(C(C)(C)C)c(=O)c2Cl)cc1` 1

Provide Population Hoechst High Intensity Objects (%), system Fibroblast, entry `COCCn1c(C)c(C)s/c1=N\C(=O)C1C(C)(C)C1(C)C` 0

Provide Population Hoechst High Intensity Objects (%), system Fibroblast, entry `Cc1cc(-c2ccc3c(c2)CC[C@H]3N2CC3(CCN(C(=O)Cc4cn5cc(C)sc5n4)CC3)C2)ncn1` 4

Provide Population Hoechst High Intensity Objects (%), system Fibroblast, entry Cl.Cl.OCCOCCN1CCN(C(c2ccccc2)c2ccc(Cl)cc2)CC1 (stereo not drawn) [HYDROXYZINE HYDROCHLORIDE] 1

Provide Population Hoechst High Intensity Objects (%), system Fibroblast, entry O=C(O)CCC/C=C\CC1C(O)CC(O)C1/C=C/C(O)COc1cccc(Cl)c1 (stereo not drawn) 0

Provide Population Hoechst High Intensity Objects (%), system Fibroblast, entry `COc1c(Nc2ccc(S(C)(=O)=O)nc2C)ncnc1OC1CCN(C(=O)OC(C)C)CC1` 3

Provide Population Hoechst High Intensity Objects (%), system Fibroblast, entry `S=C(NCCCc1c[nH]cn1)NCCCN(Cc1ccc(Cl)c(Cl)c1)c1ccc(Br)cn1` 5

Provide Population Hoechst High Intensity Objects (%), system Fibroblast, entry `COc1ccc2[nH]c(I)c(CCNC(C)=O)c2c1` 2

Provide Population Hoechst High Intensity Objects (%), system Fibroblast, entry `CN(C)C(=O)Cn1cc(-c2ccc(-c3nnc4ccccn34)cc2)cn1` 5

Provide Population Hoechst High Intensity Objects (%), system Fibroblast, entry `CC(C)C[C@H](CO)Nc1nc(S[C@@H](C)c2ccccc2)nc2nc(N)sc12` 1

Reference source: ChEMBL document CHEMBL5058577
